Some molecules, each annotated with its measured IC50.
biological target: MARK3 (Homo sapiens); construct: purchased MRC PPU; assay: ADP-Glo biochemical assay MARK3; conditions: ADP-Glo assay; read-out: MARK3 pIC50 (converted)
Sequence (P27448 whole entry): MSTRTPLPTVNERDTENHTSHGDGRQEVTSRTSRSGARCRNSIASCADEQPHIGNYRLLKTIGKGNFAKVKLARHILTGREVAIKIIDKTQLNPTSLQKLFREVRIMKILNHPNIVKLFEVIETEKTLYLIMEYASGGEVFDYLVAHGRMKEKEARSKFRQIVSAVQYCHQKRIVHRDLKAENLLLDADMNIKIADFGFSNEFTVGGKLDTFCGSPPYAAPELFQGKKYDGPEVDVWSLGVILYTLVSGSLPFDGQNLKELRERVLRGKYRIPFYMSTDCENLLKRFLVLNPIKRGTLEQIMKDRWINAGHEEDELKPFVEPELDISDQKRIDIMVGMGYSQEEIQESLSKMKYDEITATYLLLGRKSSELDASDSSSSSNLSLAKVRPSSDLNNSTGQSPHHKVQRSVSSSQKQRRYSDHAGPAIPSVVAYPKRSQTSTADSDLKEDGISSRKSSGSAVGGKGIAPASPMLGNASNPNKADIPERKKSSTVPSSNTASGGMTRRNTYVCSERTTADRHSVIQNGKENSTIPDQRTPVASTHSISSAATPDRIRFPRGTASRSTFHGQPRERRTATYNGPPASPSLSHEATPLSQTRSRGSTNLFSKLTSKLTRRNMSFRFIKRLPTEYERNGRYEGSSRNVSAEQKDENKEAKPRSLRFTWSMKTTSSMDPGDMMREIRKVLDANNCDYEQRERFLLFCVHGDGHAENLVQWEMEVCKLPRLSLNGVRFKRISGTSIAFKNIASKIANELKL

Please review the following examples before continuing.
# molecule, measurement
measured = [
    ("Cc1cc(=O)n(C2CCCC2)c2nc(Nc3ccc(N4CCN(C)CC4)cc3)ncc12 [Compound 4]", "437 nM"),
    ("CC(C)N1CCN(c2ccc(Nc3ncc4ccn(CC5CCCO5)c4n3)cc2)CC1 (centres unmarked) [Compound 27]", "676 nM"),
    ("CN1C2CC1CN(c1ccc(Nc3ncc4ccn(C5CCOC5)c4n3)cc1)C2 (centres unmarked) [Compound 30]", "6310 nM"),
    ("CN1CCN(c2ccc(Nc3ncc4cc(C#N)c(=O)n(C5CCCC5)c4n3)cc2)CC1 [Compound 3, Narazaciclib, reference compound]", "1480 nM"),
]

// sample Cc1cc(=O)n(C2CCCC2)c2nc(Nc3ccc(N4CCNCC4)cn3)ncc12 [Compound 13] , its IC50 was > 3160 nM

* * *

Biological target: NUAK1 (Homo sapiens)
Sequence (O60285 1-661): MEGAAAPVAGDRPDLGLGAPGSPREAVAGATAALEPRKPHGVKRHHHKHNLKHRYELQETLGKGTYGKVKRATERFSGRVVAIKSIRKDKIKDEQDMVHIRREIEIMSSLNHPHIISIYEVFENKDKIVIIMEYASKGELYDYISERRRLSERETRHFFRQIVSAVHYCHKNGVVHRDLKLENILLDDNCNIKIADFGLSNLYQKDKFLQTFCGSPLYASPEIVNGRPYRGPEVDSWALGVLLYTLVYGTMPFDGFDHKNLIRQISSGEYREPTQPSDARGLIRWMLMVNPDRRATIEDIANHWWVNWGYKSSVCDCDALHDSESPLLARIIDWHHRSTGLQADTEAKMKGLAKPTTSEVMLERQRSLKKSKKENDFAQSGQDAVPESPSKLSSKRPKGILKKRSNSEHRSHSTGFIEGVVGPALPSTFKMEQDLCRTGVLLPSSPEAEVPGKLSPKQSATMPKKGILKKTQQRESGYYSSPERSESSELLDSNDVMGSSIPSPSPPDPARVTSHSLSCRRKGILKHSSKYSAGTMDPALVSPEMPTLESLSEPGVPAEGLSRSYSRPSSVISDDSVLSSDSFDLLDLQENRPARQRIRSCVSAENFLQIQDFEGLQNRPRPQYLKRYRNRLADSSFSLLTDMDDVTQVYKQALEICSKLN
Test: NanoBRET target engagement assay, HEK293 cells
Details: cell-based NanoBRET target engagement assay
Some molecules, each annotated with its measured NUAK1 cell TE pIC50.

# structure_smiles_string, measurement
measured = [
    ("COc1cc(Nc2ncc3cc(C#N)c(=O)n(C4CCCC4)c3n2)cc(OC)c1", "<4.6"),
    ("Cc1cc(=O)n(C2CCCC2)c2nc(Nc3ccc(N4CCN(C)CC4)cc3)ncc12", 6.9),
    ("Cc1cc(=O)n(C2CCCC2)c2nc(Nc3ccc(N4CCN(C(C)C)CC4)cc3)ncc12", 6.6),
]

// sample `CC(C)N1CCN(c2ccc(Nc3ncc4ccn(C5CCCC5)c4n3)cc2)CC1` , its NUAK1 cell TE pIC50 was 6.8

* * *

test: Mouse PK cassette (5 mg/kg, I.P.); details: male, CD-1, mouse, brain / plasma, ip
measure: Kp at 0.5 h
Format: numeric value only, no unit, no commentary.

Please review the following examples before continuing.
# compound, Kp at 0.5 h
records = [
    ("CN1C2CC1CN(c1ccc(Nc3ncc4ccn(CC5CCOCC5)c4n3)cc1)C2 [Compound 24]", 0.9),
    ("CN1CCN(c2ccc(Nc3ncc4cc(C#N)c(=O)n(C5CCCC5)c4n3)cc2)CC1 [Compound 3, Narazaciclib, reference compound]", 1.9),
    ("Cc1cc(=O)n(C2CCCC2)c2nc(Nc3ccc(N4CC5CC(C4)N5C)cc3)ncc12 [Compound 9]", 0.8),
]

Read the next record carefully.
// sample CN1C2CC1CN(c1ccc(Nc3ncc4cc(C#N)c(=O)n(C5CCCC5)c4n3)cc1)C2 [Compound 10] , its Kp at 0.5 h was 0.7
